Biological target: T1, rNTD (N-terminal domain of phage phi11 CI repressor) (Staphylococcus aureus phage phi11, UniProt Q8SDX2 1-118)
T1 sequence: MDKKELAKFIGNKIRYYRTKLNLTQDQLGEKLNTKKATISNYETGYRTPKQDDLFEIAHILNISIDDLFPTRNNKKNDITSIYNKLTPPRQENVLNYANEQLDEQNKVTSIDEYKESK
Experiment: EMSA; 0°C (on ice); EMSA with ~0.1 nM 32P-DNA, 20 min on ice (0°C) unless 42°C; RNAP assay and protein storage in buffer C (10 mM Tris-HCl pH 8.0, 200 mM NaCl, 1 mM EDTA, 5% glycerol); standard EMSA buffer not printed (per refs 7, 8); native PAGE 6% or 10%
Conditions: protein: recombinant; tags: C-terminal His6 (8 additional residues); chain copies: 2; label: 32P; 3' overhang 1 nt (both ends)
parameterMeasured: Kd (nM)
Note: unit nM is implicit; provide only the numeric part.

query: Name the recorded Kd of the item O1 (dsDNA) DNA 1: GACTCAAGTACACGTATCGTGTATAGTAGGTTTA DNA 2: AAACCTACTATACACGATACGTGTACTTGAGTCA in your answer.
result: 3.13
